assay.target: human serum albumin (HSA) (Homo sapiens, UniProt P02768)
Construct: purchased Sigma Aldrich
Sequence (P02768 25-609): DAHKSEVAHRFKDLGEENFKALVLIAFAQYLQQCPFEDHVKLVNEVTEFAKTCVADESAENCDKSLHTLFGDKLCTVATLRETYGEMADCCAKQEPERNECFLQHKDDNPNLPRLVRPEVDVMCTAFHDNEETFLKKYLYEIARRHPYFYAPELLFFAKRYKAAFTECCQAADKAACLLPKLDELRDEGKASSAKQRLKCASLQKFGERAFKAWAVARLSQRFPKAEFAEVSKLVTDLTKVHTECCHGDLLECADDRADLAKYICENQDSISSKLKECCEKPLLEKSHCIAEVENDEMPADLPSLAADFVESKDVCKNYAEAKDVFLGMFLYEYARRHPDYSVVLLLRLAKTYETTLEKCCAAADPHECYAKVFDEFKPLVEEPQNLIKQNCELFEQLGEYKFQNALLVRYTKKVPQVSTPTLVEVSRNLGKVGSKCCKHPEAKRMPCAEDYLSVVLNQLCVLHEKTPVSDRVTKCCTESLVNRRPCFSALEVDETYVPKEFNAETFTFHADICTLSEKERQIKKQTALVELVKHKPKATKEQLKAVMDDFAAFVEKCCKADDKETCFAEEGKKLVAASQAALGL
measurement.protocol: Taylor dispersion (OneStep) SPR, kinetic analysis of flavonoids on immobilized HSA
Type: binding
protocol.conditions: human, pH 7.4, HSA, Site 1, 25 °C, OneStep SPR, global kinetic fit (1:2 model; kaempferol 1:1); read-out: kd (dissociation rate constant), Site 1
Protocol: Hydroxyl-gel modified sensor chips and coupling reagents for the Pioneer SPR instrument (SensiQ Technologies, Oklahoma City, OK, USA) were obtained from Xantec (Duesseldorf, Germany). […] All analyses were performed at 25 °C. […] In this study, we explored the SensiQ Pioneer’s dynamic SPR capability (also known as the OneStep® injection method), which is essentially a Taylor dispersion to create a gradient injection to quantify biomolecular interactions. […]

{"molecule": "O=c1c(O)c(-c2ccc(O)c(O)c2)oc2cc(O)cc(O)c12 [Quercetin, quercetin]", "koff / s⁻¹": 0.016}
{"molecule": "Oc1ccc(/C=C/c2cc(O)cc(O)c2)cc1 [Resveratrol, resveratrol]", "koff / s⁻¹": 0.003}
{"molecule": "O=c1cc(-c2ccc(O)c(O)c2)oc2cc(O)cc(O)c12 [Luteolin, luteolin]", "koff / s⁻¹": 0.205}
{"molecule": "O=c1c(O)c(-c2ccc(O)cc2)oc2cc(O)cc(O)c12 [Kaempferol, kaempferol]", "koff / s⁻¹": 0.002}

----------
As shown below, each of these compounds has a reported kon value.
assay.target: human serum albumin (HSA) (Homo sapiens, UniProt P02768)
Construct: purchased Sigma Aldrich
measurement.protocol: Taylor dispersion (OneStep) SPR, kinetic analysis of flavonoids on immobilized HSA
Assay type: binding
protocol.conditions: human, pH 7.4, HSA, Site 2, 25 °C, OneStep SPR, 1:2 model; read-out: ka (association rate constant), Site 2
quantity: kon

{"compound": "O=c1cc(-c2ccc(O)c(O)c2)oc2cc(O)cc(O)c12 [Luteolin, luteolin]", "quantity": "kon", "readout.value": "17.1 M⁻¹ s⁻¹"}
{"compound": "Oc1ccc(/C=C/c2cc(O)cc(O)c2)cc1 [Resveratrol, resveratrol]", "quantity": "kon", "readout.value": "2900 M⁻¹ s⁻¹"}
{"compound": "O=c1c(O)c(-c2ccc(O)c(O)c2)oc2cc(O)cc(O)c12 [Quercetin, quercetin]", "quantity": "kon", "readout.value": "100 M⁻¹ s⁻¹"}

----------
As shown below, each of these compounds has a reported koff value.
assay.target: human serum albumin (HSA) (Homo sapiens, UniProt P02768)
Construct: purchased Sigma Aldrich
measurement.protocol: Taylor dispersion (OneStep) SPR, kinetic analysis of flavonoids on immobilized HSA
Assay type: binding
protocol.conditions: human, pH 7.4, HSA, Site 2, 25 °C, OneStep SPR, 1:2 model; read-out: kd (dissociation rate constant), Site 2
Procedure: Hydroxyl-gel modified sensor chips and coupling reagents for the Pioneer SPR instrument (SensiQ Technologies, Oklahoma City, OK, USA) were obtained from Xantec (Duesseldorf, Germany). […] All analyses were performed at 25 °C. […] In this study, we explored the SensiQ Pioneer’s dynamic SPR capability (also known as the OneStep® injection method), which is essentially a Taylor dispersion to create a gradient injection to quantify biomolecular interactions. […]
quantity: koff (s⁻¹)

{"compound": "O=c1c(O)c(-c2ccc(O)c(O)c2)oc2cc(O)cc(O)c12 [Quercetin, quercetin]", "readout.value": 0.405}
{"compound": "Oc1ccc(/C=C/c2cc(O)cc(O)c2)cc1 [Resveratrol, resveratrol]", "readout.value": 0.52}
{"compound": "O=c1cc(-c2ccc(O)c(O)c2)oc2cc(O)cc(O)c12 [Luteolin, luteolin]", "readout.value": 0.007}

----------
assay.target: human serum albumin (HSA) (Homo sapiens, UniProt P02768)
Construct: purchased Sigma Aldrich
measurement.protocol: Taylor dispersion (OneStep) SPR, kinetic analysis of flavonoids on immobilized HSA
Type: binding
protocol.conditions: human, pH 7.4, HSA, Site 1, 25 °C, OneStep SPR, global kinetic fit (1:2 model; kaempferol 1:1); read-out: ka (association rate constant), Site 1
As shown below, each of these compounds has a reported kon value.
quantity: kon (M⁻¹ s⁻¹)

{"test.smiles": "O=c1c(O)c(-c2ccc(O)cc2)oc2cc(O)cc(O)c12", "quantity": "kon", "readout.value": 48400}
{"test.smiles": "O=c1c(O)c(-c2ccc(O)c(O)c2)oc2cc(O)cc(O)c12", "quantity": "kon", "readout.value": 240000}
{"test.smiles": "O=c1cc(-c2ccc(O)c(O)c2)oc2cc(O)cc(O)c12", "quantity": "kon", "readout.value": 3200}
{"test.smiles": "Oc1ccc(/C=C/c2cc(O)cc(O)c2)cc1", "quantity": "kon", "readout.value": 7000}

----------
assay.target: human serum albumin (HSA) (Homo sapiens)
Construct: purchased Sigma Aldrich
measurement.protocol: Taylor dispersion (OneStep) SPR, kinetic analysis of flavonoids on immobilized HSA
Assay type: binding
protocol.conditions: HSA, Site 1, 25 °C, OneStep SPR, global kinetic fit (1:2 model; kaempferol 1:1); read-out: KD (equilibrium dissociation constant), Site 1
pKd: −log10 of the molar value.
quantity: pKd

{"compound": "O=c1c(O)c(-c2ccc(O)c(O)c2)oc2cc(O)cc(O)c12 [Quercetin, quercetin]", "readout.value": 7.20}
{"compound": "Oc1ccc(/C=C/c2cc(O)cc(O)c2)cc1 [Resveratrol, resveratrol]", "readout.value": 6.40}
{"compound": "O=c1c(O)c(-c2ccc(O)cc2)oc2cc(O)cc(O)c12 [Kaempferol, kaempferol]", "readout.value": 7.43}
{"compound": "O=c1cc(-c2ccc(O)c(O)c2)oc2cc(O)cc(O)c12 [Luteolin, luteolin]", "readout.value": 4.20}
